target: human SOS1 (nucleotide exchange of K-Ras^G12C) (Homo sapiens); experiment: Biochemical assay 2: K-Ras^G12C activation assay by hSOS1 at high GTP concentration (HTRF); settings: read-out: Assay 2 (KRAS-Activation by SOS high GTP) activity expressed as % inhibition at 20 μM; high GTP; at 20 μM
parameter.measured: inhibition at 20 µM

CCCOc1ccccc1-c1ccc([C@H](C)Nc2nc(C)nc3cc(OC)c(OC)cc23)s1 (stereo in doubt)    22%
COc1cc2nc(C)nc(N[C@H](C)c3cc4cccc(OC)c4o3)c2cc1OC (stereo in doubt)    24%
COc1cc2nc(C)nc(N[C@@H](C)c3ccc(-c4ccc5c(c4)OCCN5C)s3)c2cc1OC (stereo in doubt)    19%
COC(=O)c1cc(-c2ccc(C(C)Nc3nc(C)nc4cc(OC)c(OC)cc34)s2)nn1C (centres unmarked)    32%
COc1cc2nc(C)nc(NC(C)c3ccc(C4=CCCC4)s3)c2cc1OC (centres unmarked)    53%
COc1cc2nc(C)nc(NC(C)c3ccc(-n4ccc(CCO)n4)o3)c2cc1OC (centres unmarked)    37%
COc1cc2nc(C)nc(NC(C)c3cccc4cccnc34)c2cc1OC (centres unmarked)    50%
COc1cc2nc(C)nc(NC(C)c3cc4cccc(O)c4o3)c2cc1OC (centres unmarked)    8%
COc1cc2nc(C)nc(N[C@H](C)c3cccc(-c4ccccc4Oc4ccccc4)c3)c2cc1OC    36%
COc1cc2nc(C)nc(N[C@H](C)c3cccc(-c4ccccc4OCc4ccccc4)c3)c2cc1OC    33%

Now, please, on to the next compound.
Query string: Please look up its inhibition at 20 µM: CCCNC(=O)c1ccc(-c2ccc([C@H](C)Nc3nc(C)nc4cc(OC)c(OC)cc34)s2)cc1 (stereo in doubt)
Result string: 25%

###

biological target: K-Ras^G12C : hSOS1 interaction (Homo sapiens, UniProt Q07889); assay: Biochemical assay 1: K-Ras^G12C interaction assay with hSOS1 (HTRF); type: binding; details: read-out: Assay 1 (KRAS-SOS Interaction) activity expressed as IC50
Examples of compounds with documented IC50 follow.
Unit µM implied. Number only.

Below are worked cases with known answers.
COc1cc2nc(C)nc(N[C@H](C)c3cccc(-c4cncc(S(C)(=O)=O)c4)c3)c2cc1OC [Example 56]    1.47
COc1cc2nc(C)nc(NC(C)c3cccc4scnc34)c2cc1OC (stereo not drawn) [Example 14]    0.666
COc1cc2nc(C)nc(N[C@H](C)c3cccc(-c4cccc(N5CCOCC5)c4)c3)c2cc1OC [Example 80]    0.721
COc1cc2nc(C)nc(N[C@H](C)c3cccc(-c4cn[nH]c4)c3)c2cc1OCc1ccccc1 [Example 344]    0.931
COc1cc2nc(C)nc(N[C@H](C)c3cccc(-c4ccccc4C(=O)N(C)C)c3)c2cc1OC [Example 103]    1.44

Query string: Please look up its IC50: COc1cc2nc(C)nc(NC(C)c3ccc(-c4ccccc4CNCC(F)F)s3)c2cc1OC (stereo not drawn) [Example 315]
Result string: 0.777

###

biological target: human SOS1 (loading of human K-Ras^G12C-GDP with fluorescent GTP-analog) (Homo sapiens); test: Biochemical assay 3: K-Ras^G12C activation assay by hSOS1 (HTRF); conditions: read-out: Assay 3 (KRAS-Activation by SOS no GTP) activity expressed as % inhibition at 20 μM; no GTP; at 20 μM
// 0 strictly below 20% in inhibition at 20 µM; 1 otherwise

Known results for molecules:
COc1cc2nc(C)nc(N[C@H](C)c3cccc(-c4cccc(OCc5ccccc5)c4)c3)c2cc1OC [Example 123]    1
COc1cc2nc(C)nc(N[C@@H](C)c3ccc(-c4ccc(CNC(C)=O)cc4)s3)c2cc1OC (stereo in doubt) [Example 138]    1

Query string: // inclusive: inhibition at 20 µM at least 20%? input: COc1cc2nc(C)nc(N[C@@H](C)c3ccc(-c4cccc(OCc5ccccc5)c4)s3)c2cc1OC (stereo in doubt) [Example 135]
Result string: 0

Query string: Entry COc1cc2nc(C)nc(N[C@H](C)c3cccc(-c4ccccc4OCc4ccccc4)c3)c2cc1OC [Example 81] please
Result string: 1

Query string: Entry COc1cc2nc(C)nc(NC(C)c3c(C)ccc4[nH]ncc34)c2cc1OC (centres unmarked) [Example 7] please
Result string: 1

Values from patent US20240083857A1
